Biological target: T1, VEGFR-1-Fc (human, UniProt P17948 27-331)
T1 construct: domain: first three Ig domains; expressed in Drosophila S2 cells, purified on Protein A sepharose; also called VEGFR-1-Fc fusion protein; not shown: Fc fragment from the Signal-pIgPlus vector
T1 sequence (P17948 27-331): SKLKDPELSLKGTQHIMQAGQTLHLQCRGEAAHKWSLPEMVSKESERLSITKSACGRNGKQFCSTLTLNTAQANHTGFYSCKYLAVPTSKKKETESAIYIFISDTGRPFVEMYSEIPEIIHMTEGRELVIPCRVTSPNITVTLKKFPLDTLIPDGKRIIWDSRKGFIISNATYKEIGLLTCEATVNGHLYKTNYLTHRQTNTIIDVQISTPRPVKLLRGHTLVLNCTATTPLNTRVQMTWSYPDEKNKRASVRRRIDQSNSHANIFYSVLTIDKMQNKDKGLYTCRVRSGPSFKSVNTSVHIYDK
Assay: receptor-Fc IP
measurement name: binding result

{"columns": ["binder", "measurement name", "endpoint value"],
 "data": [
  ["83-15 (ligand) AHYNTEILKFMDVYQRSYCHPIETLVDIFQEYPDEIEYIFKPPCVSVYRCGGCCNSEGLQCVPTEESNITMQIMRITVPLSQGPKPVTISFANHTSCRCMSKLD", "binding result", "binds"],
  ["84-9 (ligand) AHYNTEILKFMDVYQRSYCHPIETLVDIFQEFGVATNTFFKPSCVPLMRCGGCCNDEGLECVPTEESNITMQIMRITVPLSQGPKPVTISFLQHNKCECRPKKD", "binding result", "binds"],
  ["12-7 (ligand) GQNHHEVVKFMDVYQRSYCHPIETLVDIFQEFGVATNTFFKPPCVSVYRCGGCCNSEGLQCVPTEESNITMQIMRIKPHQGQHIGEMSFANHTSCRCMSKLD", "binding result", "binds"],
  ["12-3 (ligand) GQNHHEVVKFMDVYQRSYCHPIETLVDIFQEFGVATNTFFKPPCVSVYRCGGCCNSEGLQCVPTEESNITMQIMRIKPHQGQHIGEMSFLQHNKCECRPKKD", "binding result", "binds"]
]}

Hello, the source for this data is patent US20050267024A1, in case you need it.
